Known T/C of a selection of compounds
Tested on: P388 leukemia ip, CD2F1 mice, survival T/C
Assay: NCI In Vivo Anticancer Drug Screen. Data for tumor model P388 Leukemia (intraperitoneal) in CD2F1 (CDF1) mice
Details: endpoint: median survival time; dose: 120.0 mg/kg/injection; schedule: Q01DX005 (ip); vehicle: Klucel (hydroxypropylcellulose) (HPC); higher = longer survival
Inconclusive results and toxic doses are left out.

compound-smiles	target-of-assay	T/C
COc1c2c(c(OC)c3c1C(=O)C(=O)C=C3O)OCO2	P388 leukemia ip, CD2F1 mice, survival T/C	113 % of control
CSc1n[nH]c(-c2cccs2)n1	P388 leukemia ip, CD2F1 mice, survival T/C	105 % of control
O=C(O)c1ccc2c(c1Sc1ccc(Cl)cc1)C(=O)c1ccccc1C2=O	P388 leukemia ip, CD2F1 mice, survival T/C	90 % of control

* * *

Tested on: P388 leukemia ip, CD2F1 mice, survival T/C
Experiment: NCI In Vivo Anticancer Drug Screen. Data for tumor model P388 Leukemia (intraperitoneal) in CD2F1 (CDF1) mice
Settings: endpoint: median survival time; dose: 50.0 mg/kg/injection; schedule: Q01DX005 (ip); vehicle: saline; higher = longer survival
Inconclusive results and toxic doses are left out. Peptide text beside a SMILES is read from it. * marks the point of attachment. Boc = CC(C)(C)OC(=O)*

compound	T/C
Cc1[nH]c2ccccc2c1CCCO	105 % of control
NC(=O)c1n[nH][nH]c1=O	115 % of control
COc1ccc(N2C(=O)C(N=Nc3ccc(S(=O)(=O)Nc4ncccn4)cc3)C(=O)N(c3ccccc3)C2=S)cc1 (stereo not drawn)	103 % of control
COc1cc(NC(C)CN(CC(C)C)CC(C)C)c2ncccc2c1Cl (stereo not drawn)	100 % of control
O=C1C=C(N2CCN(CCO)CC2)C(=O)c2c(N3CCN(CCO)CC3)cc(N3CCN(CCO)CC3)nc21	97 % of control
CC(=O)NCCSSSCCNC(C)=O	115 % of control
CC(=O)OCC(OC(C)=O)C(Cl)CCl (stereo not drawn)	103 % of control
CC(C)(C)OC(=O)NCC(=O)NCC(=O)O (Boc-Gly-Gly-OH)	102 % of control
CN1C2CCC1C(Br)C=C2c1ccccc1 (stereo not drawn)	109 % of control
CCN(CC)CCOC1CCCCC1	105 % of control
CCOC(C)(OCC)N(C)C	101 % of control
CN1OC(=O)OC2(CCCCC2)C1=O	96 % of control
COC(=O)C(CCl)NC(C)=O (stereo not drawn)	97 % of control

* * *

System: P388 leukemia ip, CD2F1 mice, survival T/C
Assay: NCI In Vivo Anticancer Drug Screen. Data for tumor model P388 Leukemia (intraperitoneal) in CD2F1 (CDF1) mice
Details: endpoint: median survival time; dose: 12.5 mg/kg/injection; schedule: Q01DX005 (ip); vehicle: Klucel (hydroxypropylcellulose) (HPC); higher = longer survival
Toxic doses and inconclusive results are not listed.
Known T/C of a selection of compounds
endpoint: T/C

compound	target-of-assay	result-value
C#CCC(C(C)=O)C(C)=O.[C-]#[O+].[C-]#[O+].[C-]#[O+].[C-]#[O+].[C-]#[O+].[C-]#[O+].[Co].[Co]	P388 leukemia ip, CD2F1 mice, survival T/C	108 % of control
COc1nc(COC(=O)NC(C)C)c(COC(=O)NC(C)C)n1C	P388 leukemia ip, CD2F1 mice, survival T/C	109 % of control
CCN(CC)c1ccc(C(=N)c2ccc(N(CC)CC)cc2)cc1	P388 leukemia ip, CD2F1 mice, survival T/C	101 % of control
Nc1c(-c2ccc(C3=NCCN3)cc2)[nH]c2cc(C3=NCCN3)ccc12	P388 leukemia ip, CD2F1 mice, survival T/C	118 % of control
Nc1nnc(SCCCCCCCCCCCCSc2nnc(N)s2)s1	P388 leukemia ip, CD2F1 mice, survival T/C	91 % of control
O=C(NC(Cc1c[nH]c2ccccc12)C(=O)O)c1ccccc1[N+](=O)[O-] (stereo unspecified)	P388 leukemia ip, CD2F1 mice, survival T/C	108 % of control
O=C(N=Nc1c(Cl)c(O)c2ccccc2c1O)C(=O)Nc1cccc(C(F)(F)F)c1	P388 leukemia ip, CD2F1 mice, survival T/C	107 % of control
c1ccc([Se][Se]c2ccccn2)nc1	P388 leukemia ip, CD2F1 mice, survival T/C	103 % of control
CCCCCCCCCCNCCSSc1ccccc1	P388 leukemia ip, CD2F1 mice, survival T/C	100 % of control
COc1ccc(/C=C/c2ccc3ccccc3[n+]2C)cc1Br	P388 leukemia ip, CD2F1 mice, survival T/C	113 % of control
N#CC1=C(Nc2ccccc2)CCC1	P388 leukemia ip, CD2F1 mice, survival T/C	95 % of control

Attribution: PubChem BioAssay AID330
